- Target of assay: Recombinant human MMP-13 (Homo sapiens, UniProt P45452)
- Construct: made in house; host or cells: baculovirus / insect cells
- Assay procedure: biochemical
- Study conditions: fluorogenic MCA-peptide substrate, pH 7.5, room temperature; read-out: MMP-13 IC50
Quantity kind: IC50
Enter the number, and then the unit.

Solved entries (count: 3):
# Chemical structure, IC50
data = [
    ("C=CCN1CCC(C(=O)NO)(S(=O)(=O)c2ccc(N3CCC(C(=O)c4ccc(CCC)cc4)CC3)cc2)CC1", "0.5 nM"),
    ("C#CCN1CCC(C(=O)NO)(S(=O)(=O)c2ccc(N3CCC(C(=O)c4ccc(C)cc4)CC3)cc2)CC1", "0.6 nM"),
    ("COCCN1CCC(C(=O)NO)(S(=O)(=O)c2ccc(N3CCC(C(=O)c4ccc(Cl)c(C)c4)CC3)cc2)CC1", "1.2 nM"),
]

Read the next record carefully.
IC50 in this record for C=CCN1CCC(C(=O)NO)(S(=O)(=O)c2ccc(N3CCC(C(=O)c4ccc5ccccc5c4)CC3)cc2)CC1 : 0.4 nM

====

- Target of assay: Recombinant human MMP-2 (Homo sapiens)
- Construct: made in house
- Sequence (P08253 110-660): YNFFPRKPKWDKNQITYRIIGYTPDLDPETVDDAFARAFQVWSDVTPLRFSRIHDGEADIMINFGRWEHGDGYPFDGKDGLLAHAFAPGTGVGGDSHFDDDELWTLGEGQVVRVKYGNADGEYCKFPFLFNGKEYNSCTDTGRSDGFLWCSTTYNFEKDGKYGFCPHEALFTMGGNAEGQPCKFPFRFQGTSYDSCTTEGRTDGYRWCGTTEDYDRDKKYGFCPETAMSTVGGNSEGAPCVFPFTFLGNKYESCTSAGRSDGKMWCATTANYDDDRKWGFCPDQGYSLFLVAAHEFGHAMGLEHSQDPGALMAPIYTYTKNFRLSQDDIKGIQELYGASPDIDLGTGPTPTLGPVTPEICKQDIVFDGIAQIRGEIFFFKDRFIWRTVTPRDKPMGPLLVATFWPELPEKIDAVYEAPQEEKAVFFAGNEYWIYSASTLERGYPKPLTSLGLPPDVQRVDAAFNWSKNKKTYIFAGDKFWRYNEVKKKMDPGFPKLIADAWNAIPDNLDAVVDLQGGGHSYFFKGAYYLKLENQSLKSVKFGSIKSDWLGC
- Assay procedure: biochemical
- Study conditions: fluorogenic MCA-peptide substrate, pH 7.5, room temperature; read-out: MMP-2 IC50
Quantity kind: pIC50
pIC50 field: float, defined as -log10 of concentration (mol/L).

Solved entries (count: 5):
# Compound, Measurement
measured = [
    ("CC(C)Cc1ccc(C(=O)C2CCN(c3ccc(S(=O)(=O)C4(C(=O)NO)CCOCC4)cc3)CC2)cc1 [Example 377]", 6.44),
    ("CCN1CCC(C(=O)NO)(S(=O)(=O)c2ccc(N3CCC(C(=O)c4ccc(CC5CCC5)cc4)CC3)cc2)CC1 [Example 232]", 6.20),
    ("CCC(C)Cc1ccc(C(=O)C2CCN(c3ccc(S(=O)(=O)C4(C(=O)NO)CCN(CCOC)CC4)cc3)CC2)cc1 (stereo not shown) [Example 205]", 6.39),
    ("COCCN1CCC(C(=O)NO)(S(=O)(=O)c2ccc(N3CCC(C(=O)c4ccc(COCC5CC5)cc4)CC3)cc2)CC1 [Example 239]", 7.12),
    ("O=C(NO)C1(S(=O)(=O)c2ccc(N3CCC(c4nnc(-c5ccc(C(F)(F)F)cc5)o4)CC3)cc2)CCOCC1 [Example 375]", 5.57),
]

pIC50 in this record for O=C(c1ccc(CN2CCCC2)cc1)C1CCN(c2ccc(S(=O)(=O)C3(C(=O)NO)CCOCC3)cc2)CC1 [Example 385] : 7.46

pIC50 in this record for C#CCN1CCC(C(=O)NO)(S(=O)(=O)c2ccc(N3CCC(C(=O)c4ccc(C)cc4)CC3)cc2)CC1 [Example 152] : 7.25

====

- Target of assay: Recombinant human MMP-2 (Homo sapiens, UniProt P08253)
- Construct: made in house
- Assay procedure: biochemical
- Study conditions: fluorogenic MCA-peptide substrate, pH 7.5, room temperature; read-out: MMP-2 IC50
Quantity kind: IC50 (nM)
Give the quantity in nM, number only.

Solved entries (count: 10):
# Chemical structure, IC50, nM
measured = [
    ("O=C(CN1CCN(C(=O)C2CCN(c3ccc(S(=O)(=O)C4(C(=O)NO)CCOCC4)cc3)CC2)CC1)N1CCCC1", 4800),
    ("COCCN1CCC(C(=O)NO)(S(=O)(=O)c2ccc(N3CCC(C(=O)c4cccc(Cl)c4)CC3)cc2)CC1", 94.4),
    ("CCCCc1ccc(C(=O)C2CCN(c3ccc(S(=O)(=O)C4(C(=O)NO)CCN(CCOC)CC4)cc3)CC2)s1", 58.8),
    ("Cc1ccc(C2CCN(c3ccc(S(=O)(=O)C4(C(=O)NO)CCN(CC5CC5)CC4)cc3)CC2)cc1", 13.4),
    ("CN(C)c1ccc(C(=O)C2CCN(c3ccc(S(=O)(=O)C4(C(=O)NO)CCOCC4)cc3)CC2)cc1", 10000),
    ("CN(C)Cc1ccc(C(=O)C2CCN(c3ccc(S(=O)(=O)C4(C(=O)NO)CCOCC4)cc3)CC2)cc1", 52.9),
    ("CCCc1ccc(C(=O)C2CCN(c3ccc(S(=O)(=O)C4(C(=O)NO)CCN(S(C)(=O)=O)CC4)cc3)CC2)cc1", 1750),
    ("CCN1CCC(C(=O)NO)(S(=O)(=O)c2ccc(N3CCC(C(=O)c4ccc(CCCC(C)C)cc4)CC3)cc2)CC1", 1850),
    ("C#CCN1CCC(C(=O)NO)(S(=O)(=O)c2ccc(N3CCC(C(=O)c4ccc(OC(C)C)c(C)c4)CC3)cc2)CC1", 495),
    ("O=C(c1ccc(CCC2CCCC2)cc1)C1CCN(c2ccc(S(=O)(=O)C3(C(=O)NO)CCN(C4CC4)CC3)cc2)CC1", 3390),
]

IC50 in this record for COc1ccc(C2CCN(c3ccc(S(=O)(=O)C4(C(=O)NO)CCN(CC5CC5)CC4)cc3)CC2)cc1 : 5

IC50 in this record for O=C(c1ccc(CC2CCCC2)cc1)C1CCN(c2ccc(S(=O)(=O)C3(C(=O)NO)CCOCC3)cc2)CC1 : 1270

IC50 in this record for O=C(c1ccc(Br)cc1)C1CCN(c2ccc(S(=O)(=O)C3(C(=O)NO)CCN(C4CC4)CC3)cc2)CC1 : 23.1

====

IC50 for assorted compounds
- Target of assay: Recombinant human MMP-2 (Homo sapiens, UniProt P08253)
- Construct: made in house
- Assay procedure: biochemical
- Study conditions: MMP-2 IC50(nM), fluorogenic MCA-peptide substrate, pH 7.5, room temperature
Give the quantity in nM, number only.

Solved entries (count: 2):
# Chemical structure, Target of assay, IC50 / nM
measured = [
    ("O=C(C1CCN(c2ccc(S(=O)(=O)C3(C(=O)NO)CCOCC3)cc2)CC1)N1CCN(c2ncccn2)CC1", "Recombinant human MMP-2 (Homo sapiens, UniProt P08253)", 1600),
    ("CC(=O)N1CCN(C(=O)C2CCN(c3ccc(S(=O)(=O)C4(C(=O)NO)CCOCC4)cc3)CC2)CC1", "Recombinant human MMP-2 (Homo sapiens, UniProt P08253)", 2500),
]

IC50 in this record for O=C(C1CCN(c2ccc(S(=O)(=O)C3(C(=O)NO)CCOCC3)cc2)CC1)N1CCN(c2ccccc2F)CC1 : 1400

IC50 in this record for CC(=O)c1ccc(N2CCN(C(=O)C3CCN(c4ccc(S(=O)(=O)C5(C(=O)NO)CCOCC5)cc4)CC3)CC2)cc1 : 700

====

- Target of assay: Recombinant human MMP-13 (Homo sapiens)
- Construct: made in house; host or cells: baculovirus / insect cells
- Assay procedure: biochemical
- Study conditions: fluorogenic MCA-peptide substrate, pH 7.5, room temperature; read-out: MMP-13 IC50
Quantity kind: IC50 (nM)
Give the quantity in nM, number only.

# Molecule, Target of assay, IC50, nM
data = [
    ("C#CCN1CCC(C(=O)NO)(S(=O)(=O)c2ccc(N3CCC(C(=O)c4ccc(N(C)CC)cc4)CC3)cc2)CC1 [Example 174]", "Recombinant human MMP-13 (Homo sapiens)", 1.1),
    ("COc1ccc(C(=O)C2CCN(c3ccc(S(=O)(=O)C4(C(=O)NO)CCN(CC5CC5)CC4)cc3)CC2)cc1 [Example 188]", "Recombinant human MMP-13 (Homo sapiens)", 2),
    ("O=C(c1ccc(CC2CCCCC2)cc1)C1CCN(c2ccc(S(=O)(=O)C3(C(=O)NO)CCOCC3)cc2)CC1 [Example 380]", "Recombinant human MMP-13 (Homo sapiens)", 9.7),
    ("COCCN1CCC(C(=O)NO)(S(=O)(=O)c2ccc(N3CCC(C(=O)c4ccc(CN5CCOCC5)cc4)CC3)cc2)CC1 [Example 240]", "Recombinant human MMP-13 (Homo sapiens)", 2.8),
]

IC50 in this record for COCCN1CCC(C(=O)NO)(S(=O)(=O)c2ccc(N3CCC(Sc4nccs4)CC3)cc2)CC1 [Example 256] : 7.5

IC50 in this record for C=CCN1CCC(C(=O)NO)(S(=O)(=O)c2ccc(N3CCC(C(=O)c4ccc(NC)cc4)CC3)cc2)CC1 [Example 161] : 0.3

IC50 in this record for COCCN1CCC(C(=O)NO)(S(=O)(=O)c2ccc(N3CCC(C(=O)c4ccc(CCCC(C)O)cc4)CC3)cc2)CC1 (stereo not shown) [Example 244] : 0.2

IC50 in this record for Cc1cc(C(=O)C2CCN(c3ccc(S(=O)(=O)C4(C(=O)NO)CCN(S(C)(=O)=O)CC4)cc3)CC2)ccc1Cl [Example 219] : 4.9

IC50 in this record for COCCN1CCC(C(=O)NO)(S(=O)(=O)c2ccc(N3CCC(C(=O)c4ccc(C)cc4)CC3)c(Cl)c2)CC1 [Example 275] : 184

IC50 in this record for COCCN1CCC(C(=O)NO)(S(=O)(=O)c2ccc(N3CCC(C(=O)c4ccc(OCCC5CCCCC5)cc4)CC3)cc2)CC1 [Example 228] : 19.5

IC50 in this record for O=C(NO)C1(S(=O)(=O)c2ccc(N3CCC(c4ccc(F)cc4)CC3)cc2)CCN(C2CC2)CC1 [Example 259] : 0.4

IC50 in this record for COCCN1CCC(C(=O)NO)(S(=O)(=O)c2ccc(N3CCC(C(=O)c4ccc(CC(C)C)cc4)CC3)cc2)CC1 [Example 218] : 0.2

IC50 in this record for CCN1CCC(C(=O)NO)(S(=O)(=O)c2ccc(N3CCC(C(=O)c4ccc(CCC(C)C)c(F)c4)CC3)cc2)CC1 [Example 249] : 5.8

IC50 in this record for O=C(c1ccc(Cl)cc1)C1CCN(c2ccc(S(=O)(=O)C3(C(=O)NO)CCN(C4CC4)CC3)cc2)CC1 [Example 213] : 0.5

IC50 in this record for Cc1cc(C(=O)C2CCN(c3ccc(S(=O)(=O)C4(C(=O)NO)CCOCC4)cc3)CC2)ccc1OC(C)C [Example 376] : 6.4

IC50 in this record for CCC(CC)Cc1ccc(C(=O)C2CCN(c3ccc(S(=O)(=O)C4(C(=O)NO)CCN(CC)CC4)cc3)CC2)cc1 [Example 234] : 7.5
